Test system: p-IKKα levels in L363 (NIK translocated multiple myeloma) cells
Method: Effect of compounds on p-IKKα levels in L363 cells (AlphaLISA SureFire Ultra)
Assay type: cell-based
Condition notes: Homo sapiens, L-363; L363 cells, BAFF stimulated, MG132, 6 h; average of values; read-out: Assay 2 IC50
pIC50: −log10 of the molar value.
Measurement type: pIC50

Worked examples, 6 compounds total:
CN1CC[C@@](O)(c2cc(-c3cccc(-c4nc(C(N)=O)c(N)s4)c3)no2)C1=O [Example 206]
> 7.00
Cc1ccc(-c2cc([C@]3(O)CCN(C)C3=O)on2)cc1-c1cccc(C(N)=O)n1 [Example 151]
< 6.30
[2H]c1nc(N)c2nc(-c3cccc(-c4ncc([C@@]5(O)CCN(C)C5=O)o4)c3)ccc2n1 (single isomer, unassigned) [Example 40]
< 6.30
CN1CC[C@@](O)(c2cc(-c3cccc(-c4nc5c(c(C(N)=O)n4)[C@H]4CC[C@@H](C5)O4)c3)no2)C1=O [Example 171]
< 6.30
CN1CC[C@](O)(c2cc(-c3cccc(-c4cccc(C(N)=O)n4)c3)no2)C1=O [Example 149]
< 6.30
[2H]C([2H])([2H])N1CC[C@@](O)(c2cc(-c3cccc(-c4cc(C5CC5)c(N)c(C(N)=O)n4)c3)no2)C1=O [Example 179]
> 7.00

Param item = CN1CC[C@@](O)(c2cc(-c3cccc(-c4cnc(N)c(C(N)=O)n4)c3)no2)C1=O [Example 110] ; retrieve measured pIC50.
> 7.00

Item: CCn1cnc2c(C(N)=O)nc(-c3cccc(-c4cc([C@]5(O)CCN(C)C5=O)on4)c3)cc21 [Example 90]
< 6.30

Item: CN1CC[C@@](O)(c2cc(-c3cccc(-c4ccc5[nH]nc(N)c5n4)c3)on2)C1=O [Example 17]
< 6.30
